Target: eOD-GT8 (monomeric ligand) (Human immunodeficiency virus 1, …)
pKd: −log10 of the molar value.
Returns one of Condition met or Condition not met; Condition met when pKd is >= 9.

Ask | Please tell me: is the binder g28v2-D58-1_CLK09 (antibody, V domains shown) VH: QIQLVQSGAEVKKPGASVKVSCKASGYTFTDYFIHWVRQAPGQDLVWMGWINPIYGGTNYARSFQGRVTMTRDTSISTAFLELNRLRSDDTAVYYCATDLADNRWRFDYWGQGTLVTVSS VL: DIQMTQSPSSLSASVGDRVTITCQASQDITSFLNWYQQKPGKAPKLLIYDASNLETGVPSRFSGSGSGTDFTFTISSLQPEDIATYYCQQYEFFGGGTKVEIK at or over 9 in terms of pKd?
Reply | Condition not met

Ask | Decide: is the reported value of pKd for g28v2-D46-7_CLK09 (antibody, V domains shown) VH: QVQLVQSGAEVKKPGASVKVSCKASGYTFTGYHMHWVRQAPGQGPEWMGWINPNGGGTNYAQKFQGRVTMTRDTSISTAYMELSRLRSDDTAVFYCAPVLADYGWRFDYWGQGTLVTVSS VL: DIQMTQSPSSLSASVGGRVTITCQASQDISSYLNWYQQKPGKAPKLLIYDASNLEAGVPSRFSGSGSGTDFAFTISSLQPEDIATYYCQQYEFFGGGTKVEIK equal to or greater than 9?
Reply | Condition not met

Ask | Has g28v2-D38-1_CLK19 (antibody, V domains shown) VH: QVQLVQSGAEVKKPGASVKVSCKASGYTFTGHHMHWVRQAPGQGLEWLGWINPRGGGTNYAQKFQGRVTMTRDTSISTAYMDLSRLRSDDTAVYYCTPVLATFRWRFDYWGQGTLVTVSS VL: DIQMTQSPSSLSASVGDRVTFTCQASQDISNFLNWYQQKPGKAPKLLIYDTSNLEAGVPSRFSGGGSGTDFTFTISSLQPEDVATYYCQQYATFGPGTKVDIK a recorded pKd greater than or equal to 9?
Reply | Condition not met

Ask | Has g5-D78-23_CLK09 (antibody, V domains shown) VH: QVQLVQSGAEVKKPGASVKVSCKASGYTFTDYYMHWVRQAPGQGLEWVGWINPNSGGMNFAQRFQDRVTMTRDTSISTAYMELSRLQSDDSAVYFCARVGGLWIGEKWTFDIWGQGTMVTVSS VL: DIQMTQSPSSLSASVGDRVTITCQASQDISTYLNWYQQRPGKAPKLLIYGASNLATGVPSRFSGSGSGTDFTFTISSLQPEDIATYYCQLYEFFGGGTKVEIK a recorded pKd greater than or equal to 9?
Reply | Condition met

Ask | Exam item: decide whether the reported pKd for g28v2-D38-4_CLK09 (antibody, V domains shown) VH: QVQLVQSGAEVKKPGASVKVSCKASGYTFTDYFLHWVRQAPGQGLEWMGWINPTGGGVNYAQQFQGRVTLTRDTSISTAYMELTRLRSDDTAVYYCTPVLATFRWRFDYWGQGTLVTVSS VL: DIQMTQSPSSLSASVGDRVTITCQASQDISNYLNWYQQKPGKAPKLLIYDVSNLGTGVPSRFSGSGSGTDFTFTISSLQPEDIATYYCQQYEFFGGGTKVEIK is at least 9.
Reply | Condition met

Ask | Does the reported pKd for g5-D78-16_CLK19 (antibody, V domains shown) VH: QVQLVQSGAEVKKPGASVKVSCKASGYTFTGYYIHWVRQAPGQGLEWMGWINPSYGAVNYARKFQGRVTMTRDTSISTAYMELQRLRSDDTAIYHCTIALAGYRWGFDYWGQGALVTVSS VL: DIQMTQSPSSLSAFVGDRVTITCQARLDIRYSLNWYQQKPGKAPNLLIYDASNLETGVPSRFSGSGSGTNFTFTISTLQPEDIATYYCQQYETFGPGTKVHFK fall at or above the 9 mark?
Reply | Condition not met

Ask | Record g28-D78-20_CLK09 (antibody, V domains shown) VH: QLQLVQSGAEVKKPGASVKVSCKASGYTFTGYFIHWVRQAPGQGLEWMGWLNPIYGGVNYARNFQDRVTMTRDTSISTAYLELRRLKSDDTAVYYCARVAERMIFDVWGQGTMVTVSS VL: DIQMTQSPSSLSASVGDRVTIACQASQDINNYVNWYQQKPGKAPKLLIYDASNLETGVPSRFSGSGSGTDFTFTISSLQPEDIATYYCQQYEFFGGGTKVEIK ; criterion: pKd no lower than 9. Met?
Reply | Condition not met

Ask | Decide: pKd of GT8-D36-21_CLK09 (antibody, V domains shown) VH: QVQLVQSGAEVKKPGASVKVSCKASGYTFTGYYIHWVRQAPGQGLKWMGWINPNSGGTNYAQKFQGRVTMTRDTSISTAYLELSRLRSDDTAVYYCARVEGLWTFDIWGQGTMVTVSS VL: DIQMTQSPSSLSASVGDRVTITCQASQDISNYLNWYQQKPGKAPKLLIYDASNLETGVPSRFSGSGSGTDFTFTIGSLQSEDIATYYCQQYEFFGGGTKVEIK >= 9?
Reply | Condition not met

Ask | Is it the case that g28v2-D46-3_CLK19 (antibody, V domains shown) VH: QVQLVQSGAEVKKPGAAVKVSCKASGYTFTDYYMHWVRQAPGQGLEWMGWINPRYGGTNYAQKFQDRVTMTRDTSISTTYMELRRLKSDETAVYYCTTVMADYRWPFDYWGQGTLVTVSS VL: DIQMTQSPSSLSASVGDRVTISCQASQDINNCLNWYQQKPGKAPKLLIYDTSNLGTGVPSRFSGSGSGTDFTFTISSLQPEDIGTYYCQQYDTFGPGTKVDIK has pKd reaching or exceeding 9?
Reply | Condition met
